experiment: binding in human whole blood (RB/plasma distribution, reversibility); type: in vitro ADME; details: human, N.C.A. radioactivity bound to RB, re-equilibrated with non-radioactive plasma, 37° C., 15 min, read-out: RB/plasma ratio after re-equilibration
assay.readout: blood plasma ratio at 0.25 h
Number only, please.

q: Look up blood plasma ratio at 0.25 h for this molecule: O=C(CCc1ccc(O)c([125I])c1)c1c(O)cc(O)cc1O
a: 0.15

----------
Target: erythrocytes
Assay: binding of 3-125I-phloretin to erythrocytes
Conditions: saturation binding 0.1 to 1.2 10^-10 M, Scatchard plot, pH 8, 15 min 37° C., corrected for dissociation; read-out: apparent Kd
Procedure: In order to be able to compare the binding to cancer cells with the binding to normal cells, the following experiments are carried out. Binding to certain cancer cells, viz. […] Each 1 ml essay contains 5% of foetal calf serum and is spiked (50 μl) with 3-^125 I-phloretin (initial activity is measured). […]
assay.readout: pKd
Reminder that pKd is minus the log10 of a molar concentration.

q: Give recorded pKd with erythrocytes for the following compound: O=C(CCc1ccc(O)c([125I])c1)c1c(O)cc(O)cc1O
a: 10.10

----------
assay: binding in human whole blood (RB/plasma distribution, reversibility); assay type: in vitro ADME; conditions: human, in the presence of non-radioactive Br-phloretin or phloretin
assay.readout: blood plasma ratio

q: Look up blood plasma ratio for this compound: O=C(CCc1ccc(O)c([125I])c1)c1c(O)cc(O)cc1O [3-^125 I-phloretin]
a: 0.32
